src = patent US20160242416A1

Tested on: Zymoseptoria tritici
Experiment: Test E: wheat leaf blotch, preventive spray on wheat seedlings
Settings: 10 ppm; wheat leaf blotch; 100 = 100% disease control, 0 = no control
Classes are defined on Test E rating (% disease control) with ranges lower (below 20%), middle (20% to below 30%), upper (30% or more)

{"compound": "OC(Cn1cncn1)(C1=NOC(COc2ccccc2)C1)c1ccc(Cl)cc1 (single isomer, unassigned) [Compound 145]", "classification": "middle"}
{"compound": "OC(Cn1cncn1)(C1=NOC(CSc2ccccc2)C1)c1ccc(Cl)cc1 (single isomer, unassigned) [Compound 50]", "classification": "lower"}
{"compound": "CCCCC(O)(Cn1cncn1)C1=NOC(c2ccc(Cl)cc2)C1 (single isomer, unassigned) [Compound 156]", "classification": "lower"}
{"compound": "CCC(C)(C)C(O)(Cn1cncn1)C1=NOC(COc2ccc(Cl)cc2)C1 (single isomer, unassigned) [Compound 193]", "classification": "middle"}
{"compound": "CC(C)(C)C(O)(Cn1cncn1)C1=NOC(c2ccc(-n3cc(Br)cn3)cc2)C1 (single isomer, unassigned) [Compound 7]", "classification": "lower"}
{"compound": "C[S+]([O-])c1ccc(C2CC(C(O)(Cn3cncn3)c3ccc(Cl)cc3)=NO2)cc1 (single isomer, unassigned) [Compound 111]", "classification": "lower"}
{"compound": "OC(Cn1cncn1)(C1=NOC(c2ccc(Cl)cc2)C1)c1ccccc1F (single isomer, unassigned) [Compound 134]", "classification": "upper"}
{"compound": "OC(Cn1cncn1)(C1=NOC(c2ccc(F)cc2)C1)c1ccc(Cl)cc1 (single isomer, unassigned) [Compound 159]", "classification": "lower"}
{"compound": "CC(C)(C)C(O)(Cn1cncn1)C1=NOC(COc2ccc(Br)cc2)C1 (single isomer, unassigned) [Compound 182]", "classification": "upper"}
{"compound": "CCC(C)(C)C(O)(Cn1cncn1)C1=NOC(COc2ccc(Br)cc2)C1 (single isomer, unassigned) [Compound 12]", "classification": "upper"}
{"compound": "OC(Cn1cncn1)(C1=NOC(Cc2ccc(C(F)(F)F)cc2)C1)c1ccc(Cl)cc1 (single isomer, unassigned) [Compound 203]", "classification": "lower"}
{"compound": "OC(Cn1cncn1)(C1=NOC(COc2ccccc2)C1)c1ccc(Cl)cc1 (single isomer, unassigned) [Compound 144]", "classification": "lower"}
{"compound": "OC(Cn1cncn1)(C1=NOC(COc2ccc(F)cc2)C1)c1ccc(Cl)cc1 (single isomer, unassigned) [Compound 162]", "classification": "upper"}
